system: Interleukin-6 (IL-6) in LPS-induced human PBMC; test: Cytokine secretion of LPS-induced human PBMC, IL-6 AlphaLISA detection; assay type: cell-based; details: inhibition of IL-6, compound 1 hour or 20 hours, then LPS 100 ng/mL 5 hours
Readout: IC50 (nM)
Express your answer in nM, writing the number without its unit.

Answered cases to consult:
[
  {
    "Molecule": "COc1cc2nn([C@H]3CC[C@H](CN(C)C4CCC5(CC4)CCN(C(=O)c4ccc(Cl)c(N6CCC(=O)NC6=O)c4)CC5)CC3)cc2cc1NC(=O)c1cccc(C(F)(F)F)n1",
    "IC50, nM": 2.8
  },
  {
    "Molecule": "COc1cc2nn([C@H]3CC[C@H](N(C)C4CCC5(CC4)CCN(C(=O)c4ccc(Cl)c(N6CCC(=O)NC6=O)c4)CC5)CC3)cc2cc1NC(=O)c1cccc(C(F)(F)F)n1",
    "IC50, nM": 3.2
  },
  {
    "Molecule": "CN(CC1CCN(c2cccc3c2C(=O)N(C2CCC(=O)NC2=O)C3=O)CC1)C[C@H]1CC[C@H](n2cc3cc(NC(=O)c4cccc(C(F)(F)F)n4)c(C(C)(C)O)cc3n2)CC1 (stereo partly drawn) [Control group 3, reference compound]",
    "IC50, nM": 47.5
  },
  {
    "Molecule": "COc1cc2nn(C3CCN(CC4CCN(CCOc5ccc6c(c5)C(=O)N(C5CCC(=O)NC5=O)C6=O)CC4)CC3)cc2cc1NC(=O)c1cccc(C(F)(F)F)n1 (stereo not drawn) [Control group 2, reference compound]",
    "IC50, nM": 2050
  },
  {
    "Molecule": "CN(CCC1CCN(C(=O)c2ccc(Cl)c(N3CCC(=O)NC3=O)c2)CC1)C[C@H]1CC[C@H](n2cc3cc(NC(=O)c4cccc(C(F)(F)F)n4)c(C(C)(C)O)cc3n2)CC1",
    "IC50, nM": 0.8
  }
]

Look up IC50 for this molecule: CC(C)(O)c1cc2nn(C3CCN(CC4CCC5(CC4)CCN(C(=O)c4ccc(F)c(C6CCC(=O)NC6=O)c4)CC5)CC3)cc2cc1NC(=O)c1cccc(C(F)(F)F)n1 (stereo not drawn)
5.1

Look up IC50 for this molecule: COc1cc2nn(C3CCN(CCN4CCC5(CC4)CCN(C(=O)c4ccc(OC)c(N6CCC(=O)NC6=O)c4)CC5)CC3)cc2cc1NC(=O)c1cccc(C(F)(F)F)n1
4.9

====

Target sequence: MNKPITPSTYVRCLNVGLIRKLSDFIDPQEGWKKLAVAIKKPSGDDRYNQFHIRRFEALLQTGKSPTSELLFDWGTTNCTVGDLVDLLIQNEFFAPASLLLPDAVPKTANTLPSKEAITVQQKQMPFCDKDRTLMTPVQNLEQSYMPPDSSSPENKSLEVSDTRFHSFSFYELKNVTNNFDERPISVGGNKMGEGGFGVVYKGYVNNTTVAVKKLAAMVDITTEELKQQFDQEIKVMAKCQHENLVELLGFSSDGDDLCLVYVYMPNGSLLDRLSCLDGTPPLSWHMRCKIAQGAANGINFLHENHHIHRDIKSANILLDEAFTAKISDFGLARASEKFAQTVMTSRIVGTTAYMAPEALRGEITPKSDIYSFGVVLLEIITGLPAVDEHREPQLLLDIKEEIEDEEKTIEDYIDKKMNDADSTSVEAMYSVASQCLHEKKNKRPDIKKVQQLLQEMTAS
Catalogue of IC50 values
Express your answer in nM, writing the number without its unit.

Answered cases to consult:
[
  {
    "Compound": "COc1ccc(C(=O)N2CCC3(CCC(CN4CCC(n5cc6cc(NC(=O)c7cccc(C(F)(F)F)n7)c(C(C)(C)O)cc6n5)CC4)CC3)CC2)cc1N1CCC(=O)NC1=O [Example 33]",
    "IC50 [nM]": 17.2
  },
  {
    "Compound": "COc1ccc(C(=O)N2CCC3(CC2)CN(CCN2CCC(n4cc5cc(NC(=O)c6cccc(C(F)(F)F)n6)c(C(C)(C)O)cc5n4)CC2)C3)cc1N1CCC(=O)NC1=O [Example 12]",
    "IC50 [nM]": 7.9
  },
  {
    "Compound": "O=C1CCN(c2cc(C(=O)N3CCC4(CCC(CN5CCC(n6cc7cc(NC(=O)c8cccc(C(F)(F)F)n8)c(OC(F)F)cc7n6)CC5)CC4)CC3)ccc2Cl)C(=O)N1 [Example 66]",
    "IC50 [nM]": 21.4
  }
]

Look up IC50 for this compound: COc1cc2nn(C3CCC4(CC3)CCN(CC3CCN(C(=O)c5ccc(Cl)c(N6CCC(=O)NC6=O)c5)CC3)CC4)cc2cc1NC(=O)c1cccc(C(F)(F)F)n1 [Example 57]
3.8

Look up IC50 for this compound: COc1cc2nn(C3CCN(CCC4CCC5(CC4)CCN(C(=O)c4ccc(F)c(N6CCC(=O)NC6=O)c4)CC5)CC3)cc2cc1NC(=O)c1cccc(C(F)(F)F)n1 [Example 46]
43.1
